test system: Saccharomyces cerevisiae; assay: protein stability index of tFT-peptide fusion (C-terminal peptide) (PSI (0-1 scale)); higher = more stable (slower turnover); details: genetic background: doa10 deletion; temperature: 30 C
readout kind: protein stability index
Please respond with just the number, no unit label.

[
  {
    "item sequence": "RALYLLALVGVS",
    "val": 0.169
  },
  {
    "item sequence": "DISWVFVLLIFF",
    "val": 0.318
  },
  {
    "item sequence": "CWDNTLKTMRQM",
    "val": 0.307
  },
  {
    "item sequence": "YVFSPWSCWASV",
    "val": 0.421
  },
  {
    "item sequence": "FFFLVRLCRLCV",
    "val": 0.266
  },
  {
    "item sequence": "FRRSFPFPLFLR",
    "val": 0.696
  },
  {
    "item sequence": "VSSFLLPFCLLF",
    "val": 0.654
  },
  {
    "item sequence": "VYVSRTRPFSLY",
    "val": 0.33
  },
  {
    "item sequence": "VVVRARVFFHIF",
    "val": 0.0651
  },
  {
    "item sequence": "VYLVLRCGSVLV",
    "val": 0.379
  }
]

Q) What reported protein stability index corresponds to AFYQSGGLVVVV on Saccharomyces cerevisiae?
A) 0.45

Q) State its protein stability index on Saccharomyces cerevisiae: PRFCVYARFHNT
A) 0.298

Q) Recall the recorded protein stability index for AFRRFLLYCRFI with Saccharomyces cerevisiae and state it.
A) 0.199

Q) Lab note: need protein stability index for CDSRIRKIWSYL on Saccharomyces cerevisiae, anyone have it?
A) 0.267

Q) What measured protein stability index is associated with FAKRVARVAREH on Saccharomyces cerevisiae?
A) 0.17

Q) Quick check: protein stability index on Saccharomyces cerevisiae, item AQLVYVITAVRT ?
A) 0.291

Q) Param readout= protein stability index; system= Saccharomyces cerevisiae; entry= FVLSLGQLVFIF ; returns value.
A) 0.381

Q) Which measured protein stability index belongs to LVSYHKMAISSF , tested on Saccharomyces cerevisiae?
A) 0.421

Q) // map CCSRYLSNLCPI to recorded protein stability index (system: Saccharomyces cerevisiae)
A) 0.657

Q) What measured protein stability index is associated with VYIVLLLLFLRP on Saccharomyces cerevisiae?
A) 0.319

Q) Give recorded protein stability index with Saccharomyces cerevisiae for the following sequence: HSAIFLFFFFFG
A) 0.331

Q) Query for Saccharomyces cerevisiae: what protein stability index does the record show for VGAGVFAWLWVA ?
A) 0.128

Q) protein stability index of GLGVIFFLLGYG on Saccharomyces cerevisiae?
A) 0.292

Q) Fill in the recorded protein stability index for this sequence, with Saccharomyces cerevisiae as test system: FPTLVRKFINAI
A) 0.0802

Q) Return protein stability index measured with Saccharomyces cerevisiae given this sequence: VVRSIVVYTCVF
A) 0.219

Q) Request: protein stability index, test system Saccharomyces cerevisiae, entry VSVFWVFLLVAG
A) 0.189

Q) Enter reported protein stability index observed with Saccharomyces cerevisiae for IEVGVAILLLGE
A) 0.507

Q) Entry KAIILGNIKINF , system Saccharomyces cerevisiae: what protein stability index was measured?;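 further: PSI is a weighted mean of sequencing reads over stability bins, variants kept only with over 10 reads, mCherry proximal and sfGFP distal, peptide attached via GGGS linker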
A) 0.638
